Tested on: UACC-257 melanoma
Method: NCI tumour cell line growth inhibition, 48 h
Reported Property: TGI

The cases that follow already have their TGI on record.
COc1ccc(Cn2c(Br)c3c(c2-c2cc(OC)c(OC)c(OC)c2)CCc2sc(NC(C)=O)nc2-3)cc1 | > 100 µM
Cc1cc2c(c(N)c1C)C(=O)c1ccccc1C2=O | > 100 µM

Request the reported TGI associated with COc1cc([C@@H]2c3cc4c(c(O)c3C[C@H]3COC(=O)[C@@H]32)OCO4)cc(OC)c1O > 20 µM

May I ask what TGI has been recorded for CCN(CC)c1nc(N(C)C)c2cc(OC)ccc2n1 ? 81.3 µM

Which TGI value belongs to N=c1ccn2c(n1)O[C@@H]1[C@@H](O)[C@H](CO)O[C@@H]12 ? > 100 µM

Recorded TGI of CP(C)(=S)P(C)(C)=S , please. > 100 µM

Name the recorded TGI for CC(Oc1ccc2cc(C(=O)c3ccccc3)c(=O)oc2c1)C(=O)O (stereo unspecified) . > 100 µM

Which measured TGI value corresponds to CC(C)(C)NC1C2CCC(C)(C1O)C2(C)C (stereo unspecified) ? > 100 µM

Give its TGI value. Item: Cc1ccc(C2=C(c3ccccc3)C(O)(c3ccc(C)cc3)C(c3ccccc3)=C2c2ccc(C)cc2)cc1 > 100 µM

Look up TGI: CCOC(=O)/C=C/c1ccccn1 > 100 µM

I have this compound here, COC(Cc1ccccc1)NC(C)=O (stereo unspecified) , and I need its recorded TGI. > 100 µM

====

Reported TGI values for a set of compounds
Tested on: DLD-1 colon
Method: NCI tumour cell line growth inhibition, 48 h

Example compounds with recorded TGI:
CC(O[Si](C)(C)C)C1C=CC(C)n2c(=O)n(-c3ccccc3)c(=O)n21 (configuration not stated) | > 100 µM
C=C1C(=O)OC2/C=C(\C)C3OC3/C=C(/C(=O)OC)C(OC(C)=O)C(OC(=O)C(C)(O)C(C)OC(C)=O)C12 (configuration not stated) | 7.52 µM
Cc1ccc(C(=O)NC(C)(C)C)cc1N=NN(C)C | > 100 µM
N#CC1=C(c2ccccc2)C(O)(c2ccccc2)NC1=O (configuration not stated) | > 100 µM
CC1=C(C(=O)Nc2ccccc2C)C(c2ccc(C3C(C(=O)Nc4ccccc4C)=CNC=C3C(=O)Nc3ccccc3C)cc2)C(C(=O)Nc2ccccc2C)=C(C)N1 | 37.4 µM

Record O=C(O)C1OC(Oc2cc(O)c3c(=O)cc(-c4ccc(O)cc4)oc3c2)C(O)C(O)C1O (configuration not stated) : what is its TGI with DLD-1 colon? > 100 µM

Under DLD-1 colon: TGI value of Cc1ccc(C2=C(c3ccccc3)C(O)(c3ccc(C)cc3)C(c3ccccc3)=C2c2ccc(C)cc2)cc1 ? > 100 µM

Give TGI (DLD-1 colon) of the following compound: O=C(c1ccc2c3c(ccc(C(=O)C(F)(F)F)c13)CC2)C(F)(F)F > 100 µM

====

System: HOP-92 NSCLC
Method: NCI tumour cell line growth inhibition, 48 h; in the data active means GI50 below about 0.43 µM; inactive means the rest
Respond using exactly one of the listed classes: YES = active, NO = inactive

Field: example entries. Status: answers known.
O=CC1(C2(C=O)c3ccccc3-c3ccccc32)c2ccccc2-c2ccccc21 | NO
O=C1c2cccnc2C(=O)c2c1c(C(=O)OCCN1CCOCC1)c1ccccn21 | YES

Field: next molecule
Just curious, what result did CC/C=C\C/C=C\C[C@H]1C/C=C2/C(=O)C=C[C@H]2C/C=C\CCC(=O)O1 get here? NO

====

Test system: U251 CNS
Your reply should match one of these outcome classes. active, inactive

Some solved entries appear below for comparison.
S=C(N/N=C(/c1ccccc1)c1ccccn1)Nc1cccc(Cl)c1 | active
CCc1ccc(Nc2cc(C)nc3nc(C)nn23)cc1 | inactive
CC(C)[C@@H]1CC[C@@H]2[C@@H]1[C@H](OC(=O)/C=C/c1ccccc1)[C@]1(C(C)C)C[C@@H](OC(=O)CO)[C@@]2(C)O1 | inactive

Look up the recorded call for N=c1ccn2c(n1)O[C@@H]1[C@@H](O)[C@H](CO)O[C@@H]12 in this test. inactive

I'd appreciate the recorded outcome for C[n+]1ccc(-c2c3nc(c(-c4ccc5c(ccc[n+]5C)c4)c4ccc([nH]4)c(-c4cc[n+](C)cc4)c4nc(c(-c5ccc6c(ccc[n+]6C)c5)c5ccc2[nH]5)C=C4)C=C3)cc1 from this test. inactive

Can you look up the reported call for CC([O-])C(=O)[O-].NCC1CCC1CN.[Pt+4] (stereo unspecified) for me? inactive

====

Test system: OVCAR-8 ovarian
Method: NCI tumour cell line growth inhibition, 48 h
Reported Property: GI50

// solved cases for GI50 follow
COc1cc2c3c(c4c5ccccc5[nH]c4c2c(OC)c1OC)C(=O)N(CCN1CCCCC1)C3=O | 0.487 µM
COc1cc(NC(N)=NCCC(C)(C)c2ccc(C(F)(F)F)cc2)ncc1C#N | 1.7 µM
COc1ccc(CNc2nc(NCc3ccc(OC)cc3)c3n[nH]c(C(C)C)c3n2)cc1 | 12.5 µM

I am curious: what GI50 value has been reported for COc1ccc(Nc2ncccc2C(=O)NCc2cn(Cc3cccc(Oc4ccccc4)c3)nn2)cc1 ? 3.72 µM

// query GI50 value for entry COc1cc(C2C(C#N)=C(N)Oc3cc(O)ccc32)cc(OC)c1OC (stereo unspecified) 0.856 µM

Fill in: GI50 of COc1ccc(/C=C/C(=O)c2ccc(Nc3ccnc4cc(Cl)ccc34)cc2)cc1 is ___ > 100 µM

====

Test system: EKVX NSCLC
Method: NCI tumour cell line growth inhibition, 48 h
Quick rule for you: TGI at 20 µM or higher means label 1, lower means label 0.

COc1cc(NC(N)=NCCC(C)(C)c2ccc(C(F)(F)F)cc2)ncc1C#N | label 0
O=c1[nH]c(=O)n(C2CC(O)C(CO)O2)cc1C#Cc1cc(F)cc(F)c1 (stereo unspecified) | label 1
CC1(C)C2CCC1(CC(=O)O)C(Cl)C2 (stereo unspecified) | label 1

Could you verify whether the entry COc1cc2c3c(n(CCCCl)c(=O)c2cc1OC)-c1ccc(C#N)cc1C3=O shows TGI of no less than 20 µM? label 1

Does the reported TGI for N#Cc1c2nc3ccccc3nc2n2ccc3ccccc3c12 fall at or above the 20 µM mark? label 1

Answer whether TGI of CCCCOC(=O)C1CN2C(=NC1(C(F)(F)F)C(F)(F)F)Sc1ccccc12 (stereo unspecified) is greater than or equal to 20 µM. label 1

Determine whether measured TGI meets or exceeds 20 µM for COc1ccc(/C=C/C(=O)c2ccc(Nc3ccnc4cc(Cl)ccc34)cc2)cc1 label 1

# bool: TGI of O=CC1(C2(C=O)c3ccccc3-c3ccccc32)c2ccccc2-c2ccccc21 >= 20 µM label 0

Is TGI for Cn1c(=S)sc2nc3ccccc3n2c1=S at or above 20 µM? label 1

====

Test system: ACHN renal
Method: NCI tumour cell line growth inhibition, 48 h
Recorded TGI values for a group of compounds are listed next.

May I ask what TGI has been recorded for O=C(Nc1ccc(Br)cc1F)c1cc(Br)ccc1O ? 9.18 µM

What value of TGI has been recorded for this entry: COc1cc(OC)cc(-c2cncn2-c2ccc(-c3nc4cc(OC)c(OC)c(OC)c4s3)cc2)c1 > 100 µM

Query: TGI; subject: O=C(O)C1OC(Oc2cc(O)c3c(=O)cc(-c4ccc(O)cc4)oc3c2)C(O)C(O)C1O (centres undefined) > 100 µM

====

Recorded TGI values for a group of compounds are listed next.
Test system: IGROV1 ovarian
Method: NCI tumour cell line growth inhibition, 48 h

COc1ccc(Cn2c(Br)c3c(c2-c2cc(OC)c(OC)c(OC)c2)CCc2sc(NC(C)=O)nc2-3)cc1 | > 100 µM

Entry CC1=C2C(O)C(C(C)C(=O)NC(C)C)CCC2(C)C=CC1=O (stereo unspecified) has what TGI? > 100 µM

GET /values?readout=TGI&item= S=C(Nc1ccccc1)N1N=C2c3ccccc3CC[C@H]2[C@@H]1c1ccccc1 > 100 µM

====

Tested on: RPMI-8226 leukemia
Method: NCI tumour cell line growth inhibition, 48 h
Reported Property: log10 TGI (log10 of the value in µM)
Scale type: logarithmic (base 10). Underlying TGI unit: µM.

CN(C)CCC1(C2=CCCC2)CC/C(=C\c2ccccc2)C1=O (configuration not stated) | 1.55
Cn1c(=S)sc2nc3ccccc3n2c1=S | 1.94
O=S(=O)(NCCCNc1cc(-c2cn(-c3ccccc3)nc2-c2cccc(O)c2)ccn1)c1ccc(Cl)cc1 | 0.67
Cc1ccccc1/C=C1\CN(C(=O)OC(C)(C)C)C/C(=C\c2ccccc2C)C1=O | 0.73

Item under review: Cc1ccc(S(=O)(=O)n2cc(-c3nnnn3-c3ccc(Cl)cc3)c(=O)c3ccccc32)cc1 . Reported log10 TGI? 1.77

Look up log10 TGI for this compound: CC(C)=CCC[C@H](C)[C@H]1CC[C@@H](C)c2cc(O)c(C)cc21 1.75

What measured log10 TGI goes with Oc1cc2ccccc2cc1-c1n[nH]c(=S)n1-c1ccc(Cl)cc1 ? 1.64
